Data provenance is the METLIN SMRT retention time set (Domingo-Almenara et al. 2019).

Recorded RP-LC retention time values for a group of compounds are listed next.
assay: gradient 5% acetonitrile 3 min, to 50% in 2 min, to 85% in 15 min, held 3 min, 100 µL/min; details: column: Zorbax Extend-C18 2.1 x 50 mm; eluents: water / acetonitrile, 0.1% formic acid
recorded_endpoint: RP-LC retention time (s)

> print(dat)
                            smiles.notation  reported.measurement
1  Brc1ccc(-c2nc(NCCC3=CCCCC3)c3ccccc3n2)cc1                  1010
2      Cc1nc(Cn2cccc2C(=O)Nc2ccc(F)cc2F)no1                   793
3  CC(C)N1C(=O)c2cccnc2Sc2cc(NC(=O)C3CCC3)ccc21                   798
4  O=C([C@@H]1C[C@H](F)CN1S(=O)(=O)c1cccs1)N1CCc2ccccc2C1                   830
5  O=C(Nc1cc(F)ccc1F)c1c(O)c2cccnc2n(Cc2ccccc2)c1=O                  1170

----------
test: gradient 5% acetonitrile 3 min, to 50% in 2 min, to 85% in 15 min, held 3 min, 100 µL/min; conditions: column: Zorbax Extend-C18 2.1 x 50 mm; eluents: water / acetonitrile, 0.1% formic acid
Recorded RP-LC retention time values for a group of molecules are listed next.
recorded_endpoint: RP-LC retention time (s)

> print(dat)
                                   molecule  reported.measurement
1  CC(=O)N1c2ccc(S(=O)(=O)N3CCCCC3)cc2CC1C(=O)NCCCc1ccccc1 (stereo unspecified)                   917
2    COc1ccc(-c2nnc3sc(-c4ccncc4)nn23)cc1OC                   710
3  Cc1ccc(CNC(=O)C2(C)CN(S(C)(=O)=O)CC(=O)N2c2cccc(F)c2)cc1 (stereo unspecified)                   818
4     COc1cccc(CNC(=O)c2cn3ccc(C)cc3n2)c1OC                   632
5  O=C(NCC1CCN(S(=O)(=O)C2CC2)CC1)c1cnc2ccccc2n1                   704
6  O=C(NCc1ccc(F)cc1)[C@@H]1COCC(=O)N1Cc1ccc(F)cc1                   791

----------
test: gradient 5% acetonitrile 3 min, to 50% in 2 min, to 85% in 15 min, held 3 min, 100 µL/min; conditions: column: Zorbax Extend-C18 2.1 x 50 mm; eluents: water / acetonitrile, 0.1% formic acid
# if value of RP-LC retention time reaches 800 s, tag MET; if it stays below, tag NOT MET

> print(dat)
                                    compound  qualitative.label
 1         O=C(NCC(=O)N1CCCc2ccccc21)c1ccoc1            NOT MET
 2  COCc1nc2ccccc2n1CC(=O)NCC1CCCO1 (stereo not drawn)            NOT MET
 3  CCC(C)(C)NS(=O)(=O)c1cc(-c2nc(C(C)(C)C)cs2)cs1                MET
 4  COc1cccc2c1C(=O)c1c(O)c3c(c(O)c1C2=O)C[C@@](O)(C(C)=O)C[C@@H]3OC1CC(N(C)C)C(O)C(C)O1 (stereo partly drawn)            NOT MET
 5       O=C(CSc1nc2ccccc2[nH]c1=O)Nc1ccccc1            NOT MET
 6  CCOC(=O)c1csc(NC(=O)C2CCCN(c3ccc(-c4ccccc4)nn3)C2)n1 (stereo not drawn)            NOT MET
 7  Cc1ccc(S(=O)(=O)N2CC(F)(F)C[C@H]2CN2CCc3ccccc3C2)cc1            NOT MET
 8     CCCCCn1c(CN(C)C(=O)c2ccco2)nc2ccccc21            NOT MET
 9  COc1ccc(Cl)cc1NC(=O)N1CCCC(C)(C(=O)NCc2ccccc2C)C1 (stereo not drawn)                MET
10  Cc1ccccc1CNC(=O)C1CCCN(c2ccc(=O)n(-c3cccc(Cl)c3)n2)C1 (stereo not drawn)                MET
11  COC(=O)c1cccc(NC(=O)CSc2nccc(N3CCN(c4ccccc4OC)CC3)n2)c1            NOT MET
12  COc1cc(NC(=O)c2sc(-c3cn(C(C)C)c4ncccc34)nc2C)cc(OC)c1                MET
13  O=C(CCc1nc(C2=CCN(Cc3ccc(Cl)cc3)CC2)no1)NCc1cccs1            NOT MET
14  Cc1cc(N2CCCCC2)nc(NCCNC(=O)Cc2noc3ccccc23)n1            NOT MET
15  COc1ccccc1-c1noc(Cn2ccn3nc(-c4ccc(Cl)cc4)cc3c2=O)n1                MET
16  Cc1ccc(CN(C(=O)COc2ccc(Cl)c(C)c2)C2CCS(=O)(=O)C2)o1 (stereo not drawn)                MET
17  COC(=O)c1ccc2c(=O)n(Cc3ccc(F)cc3)c(N3CCCCC3)nc2c1                MET
18  COc1ccc(N2CCN(C(=O)c3ccc(=O)n(CCN4CCOCC4)c3)CC2)cc1            NOT MET
19  Cc1cc(C)n(Cc2nc(-c3ccc(NC(=O)c4cccs4)cc3)oc2C)n1                MET
20  CCc1cccc(NS(=O)(=O)c2ccc(-c3c(C)noc3C)cc2)c1                MET
21  O=C(CN1CCN(Cc2ccc(F)cc2)C1=O)NCCc1ccccn1            NOT MET
22  COc1cc(Nc2c(C(=O)N3CCCC3)cnc3nc(C)ccc23)cc(OC)c1OC            NOT MET
23  O=C(NCC1CCCO1)c1nc(-c2ccnc(N3CCCCC3)c2)no1 (stereo not drawn)            NOT MET
24  COc1cc(OC)cc(-c2nc(C3CC(=O)N(c4ccc(F)cc4)C3)no2)c1 (stereo not drawn)                MET
25  CCN1CCOc2ccc(NC(=O)c3ccc4c(c3)OCO4)cc2C1=O            NOT MET
26         CCn1cc(CCNC(=O)CC2CCCC2)c2cccnc21            NOT MET
27             O=C(O)/C=C/c1ccc(Cn2ccnc2)cc1            NOT MET
28  Cn1nc(-c2nnc(-c3ccccc3)o2)c2c1CCN(S(=O)(=O)c1cccc3cccnc13)C2                MET

----------
Recorded RP-LC retention time values for a group of compounds are listed next.
test: gradient 5% acetonitrile 3 min, to 50% in 2 min, to 85% in 15 min, held 3 min, 100 µL/min; settings: column: Zorbax Extend-C18 2.1 x 50 mm; eluents: water / acetonitrile, 0.1% formic acid
recorded_endpoint: RP-LC retention time (s)

> print(dat)
                                   compound     recorded.endpoint  uom  reported.measurement
1      CCn1c(=O)c(NCc2cccc(Cl)c2)nc2ccncc21  RP-LC retention time    s                   649
2  O=C(Cn1nc2c(Oc3cccc(F)c3)nccn2c1=O)Nc1ccccc1  RP-LC retention time    s                   810
3  Cc1cccc(NC(=O)N2CCC(n3cnc4c(C)cccc4c3=O)CC2)c1  RP-LC retention time    s                   836
4  O=C(Nc1ccccc1)C1CCN(C(=O)c2ncn3c2COC(c2ccccc2)C3)CC1 (centres undefined)  RP-LC retention time    s                   752

----------
assay: gradient 5% acetonitrile 3 min, to 50% in 2 min, to 85% in 15 min, held 3 min, 100 µL/min; settings: column: Zorbax Extend-C18 2.1 x 50 mm; eluents: water / acetonitrile, 0.1% formic acid
recorded_endpoint: RP-LC retention time (s)

> print(dat)
                            smiles.notation  reported.measurement
1     CCn1cc(C(=O)Nc2ccc(C)c(F)c2)c2cccnc21                   920
2  COC(=O)C1=CN(c2cccc(C)c2)c2cc(F)ccc2S1(=O)=O                   911
3  CN1CC(=O)N(CC(=O)NC2CCCCCCC2)c2ccccc2C1=O                   717

----------
test: gradient 5% acetonitrile 3 min, to 50% in 2 min, to 85% in 15 min, held 3 min, 100 µL/min; conditions: column: Zorbax Extend-C18 2.1 x 50 mm; eluents: water / acetonitrile, 0.1% formic acid
Recorded RP-LC retention time values for a group of molecules are listed next.
recorded_endpoint: RP-LC retention time (s)

> print(dat)
                                   molecule     recorded.endpoint  reported.measurement
1  CN(C)c1ccc(C(=O)N2CCCC(COc3ccc(C(=O)NC4CC4)cc3)C2)cc1 (stereo not given)  RP-LC retention time                   780
2  CN(C)CC(O)Cn1c2ccc(Br)cc2c2cc(Br)ccc21 (stereo not given)  RP-LC retention time                   782
3   Cc1nn2c(CNC(=O)c3ccc(C)c(C)c3)c(C)nc2s1  RP-LC retention time                   650
4  Cc1onc(-c2ccccc2)c1C(=O)Nc1nc(-c2ccc(F)cc2)cs1  RP-LC retention time                  1090
5  O=C(NC1CC1)[C@@H]1C[C@H](Oc2cccnc2)CN1C(=O)c1ccco1  RP-LC retention time                   538
